- System: SK-MEL-28 melanoma
- TEST: NCI-60 one-dose screen, 48 h (100 = growth as untreated, 0 = no growth, -100 = all killed)
- EXPERIMENTAL_CONDITIONS: 10 µM unless noted
- Experimental: Growth inhibition of the SK-MEL-28 human tumor cell line is measured as a screen for anti-cancer activity. Cells are grown in 96 well plates and exposed to the test compound for 48 hours. Compounds are tested at a single concentration, which is 10^-5 M for most compounds. The reported endpoint is percent growth (GI% or GIPRCNT), where numbers from 0 - 100% represent growth inhibition, and numbers from -100% - 0 represent cell death. For example, a value of 40 represents 60% growth inhibition. […]
The panel holds about 83,000 compounds, 20% with a hit somewhere; the sample as a whole holds those more often.
PROPERTY_NAME: growth (%)
Please reply with the bare figure in % and do not write the unit itself.

Q: Item "CCOC(=O)c1c(C)nc(C)c(C(=O)OCC)c1-c1cccnc1" with SK-MEL-28 melanoma - growth?
Ans: 119

Q: Entry "COc1ccc(-n2nc3c(c2-c2ccc(OC)c(OC)c2)-c2oncc2CC3)cc1" , system SK-MEL-28 melanoma: what growth was measured?
Ans: 75.1

Q: GET /values?readout=growth&system=SK-MEL-28 melanoma&item= "O=C(NN(C(=O)c1ccccc1)c1cccs1)c1ccccc1"
Ans: 115

Q: SK-MEL-28 melanoma / growth / "COc1ccc(/C=C2\NC(=S)NC2=O)cc1" : value?
Ans: 119

Q: Quick check: growth on SK-MEL-28 melanoma, item "C[C@]12CC[C@@H]3c4ccc(O)c([N+](=O)[O-])c4CC[C@H]3[C@@H]1CC[C@@H]2NS(=O)(=O)c1cccc(Br)c1" ?
Ans: 49.6

Q: // lookup growth | system=SK-MEL-28 melanoma | key= "O=C(/C=C/c1ccc(Cl)cc1)c1ccccc1"
Ans: 113

Q: Value wanted: growth (SK-MEL-28 melanoma) of entry "O=C(Nc1cccc([N+](=O)[O-])c1)c1cccc(C(=O)Nc2cccc([N+](=O)[O-])c2)c1"
Ans: 77.2

Q: Could you share what growth was measured for CCCCCCCC1(C)NC(=O)NC1=O (stereo not given) , tested on SK-MEL-28 melanoma?
Ans: 87.7

Q: State its growth on SK-MEL-28 melanoma: "c1ccc(-n2nnnc2-c2cccc3ccccc23)cc1"
Ans: 56.5

Q: Item: "CCOc1nc(-c2ccccc2)cc2c(O)c(-c3nnco3)[nH]c(=O)c12" Test system: SK-MEL-28 melanoma Read-out: growth Value: ?
Ans: 76.1

Q: Form field - read-out: growth; system: SK-MEL-28 melanoma; submitted item: "O=C(Oc1ccc[nH]c1=O)c1cccc(Cl)c1"
Ans: 127

Q: What is its growth for SK-MEL-28 melanoma? Entry: CCC1(c2ccccc2)Oc2ccccc2-n2c(C#N)c3ccccc3c2C1=O (stereo not given)
Ans: 114

Q: Reported growth for SK-MEL-28 melanoma, given "Cn1cc(-c2csc(-c3cn(C)c4ncccc34)n2)c2cccnc21" ?
Ans: 101

Q: Query the reported growth for SK-MEL-28 melanoma; item: "CN1COc2ccc3ccccc3c2C1"
Ans: 98.6

Q: Under SK-MEL-28 melanoma: growth value of "O=C1NC(=O)/C(=C\c2ccccc2)C2=C1CCCC2" ?
Ans: 36.3

Q: Fill in the recorded growth for this compound, with SK-MEL-28 melanoma as test system: "O=C(Nc1cccc2ccccc12)c1cc2c(cc1Br)OCO2"
Ans: 119

Q: Kindly state the measured growth obtained for "CCOC(=O)c1ccccc1OC(=O)NNc1ccccc1" with SK-MEL-28 melanoma.
Ans: 93.6

Q: Field: growth (SK-MEL-28 melanoma). Entry: "N#CCCN(CCO)c1ccccc1"
Ans: 108

Q: What growth appears in the records for this compound with SK-MEL-28 melanoma? "O=C1c2ccccc2C(=O)c2c1cccc2-n1nnc2ccccc21"
Ans: 118

Q: Could you share what growth was measured for "CCSc1nnc2n(Cc3ccccc3)c(=O)c3c(C)c(C(N)=O)sc3n12" , tested on SK-MEL-28 melanoma?
Ans: 109

Q: Given the entry "CCN(CC)CCNc1ccc(Cl)cc1Cl" , what growth was observed with SK-MEL-28 melanoma?
Ans: 118

Q: State its growth on SK-MEL-28 melanoma: "COc1cccc(-c2nnc(N)o2)c1"
Ans: 104

Q: Param readout = growth; param system = SK-MEL-28 melanoma; param query = "CCOc1nc(-c2ccccc2)cc2c(O)c(C(=O)n3nc(C)cc3C)[nH]c(=O)c12" ; response: value
Ans: 109

Q: Report growth for "Cc1nn(-c2ccccc2)c2nc(Cl)c(/C=C/C(=O)c3ccccc3)c(-c3ccccc3)c12" tested on SK-MEL-28 melanoma.
Ans: 109

Q: Checklist item: growth tested on SK-MEL-28 melanoma, entry C[C@@H]1CC[C@H]2[C@@H](C)C(O)O[C@@H]3O[C@]4(C)CC[C@@H]1[C@]32OO4 (stereo not given in full) , value?
Ans: 78

Q: Kindly state the measured growth obtained for O=C1NCC(Nc2ccc(Br)cc2Cl)C(=O)N1 (stereo not given) with SK-MEL-28 melanoma.
Ans: 110

Q: For SK-MEL-28 melanoma, provide growth of "Cc1nnc(Nc2ccc(NC(=O)Nc3ccc(Cl)cc3)cc2)c2ccccc12" please.
Ans: -11.9

Q: Give SK-MEL-28 melanoma growth for "CN(CC(=O)Nc1nc2ccccc2[nH]1)S(=O)(=O)c1ccc(Cl)cc1"
Ans: 121

Q: # get_value(readout= growth, system= SK-MEL-28 melanoma) for "Cc1nn(-c2ccccc2)c2ncc3c(c12)C(=O)N(Cc1ccccc1)C3=O"
Ans: 91.9

Q: Lab request: please report growth under test system SK-MEL-28 melanoma for CC12CCCCC1C(C(N)=O)C(=O)O2 (stereo not given)
Ans: 105

Q: What growth appears in the records for this compound with SK-MEL-28 melanoma? "CC(C)[C@H]1CC[C@H]2[C@@H](CC[C@H]3[C@](C)(CN)CCC[C@]23C)C1"
Ans: 102

Q: Provide value of growth for this record tested with SK-MEL-28 melanoma: "O=C1/C(=C/c2ccc([N+](=O)[O-])s2)Oc2ccc(Br)cc21"
Ans: -66.4

Q: Can you look up growth on SK-MEL-28 melanoma for "O=C(Cn1ccnc1)NC(c1ccccc1)c1ccccc1" ?
Ans: 98.2

Q: Write down the reported growth of Nc1c2ccccc2nc2ccccc12 (tested in a mixture with another compound) , test system: SK-MEL-28 melanoma.
Ans: 36.2

Q: # query: growth | item "COc1cc(/C=C/C(=O)c2c(-c3ccc(F)cc3)nc3sc(C)nn23)cc(OC)c1OC" | system: SK-MEL-28 melanoma
Ans: 65.7

Q: Form field - read-out: growth; system: SK-MEL-28 melanoma; submitted item: "N#CCNc1ccccc1N"
Ans: 110

Q: For SK-MEL-28 melanoma, provide growth of "CCCCCCCCCCC[C@@H](C[C@H]1OC(=O)[C@H]1CCCCCC)OC(=O)[C@@H](CC(C)C)NC=O" please.
Ans: 111

Q: So what growth did "Cc1cc(C)n2nc(SCC(=O)Nc3sc4c(c3C(N)=O)CCC4)nc2n1" get with SK-MEL-28 melanoma?
Ans: 137

Q: Missing value: growth, SK-MEL-28 melanoma, entry "CN1C(=O)C(=Cc2cn(Cc3ccccc3)c3ccc(Br)cc23)C(=O)N(C)C1=O" . Fill in?
Ans: 113

Q: Tell me reported growth for "[O-]/[N+](=C\C=C\c1ccccc1)c1ccccc1" , tested with SK-MEL-28 melanoma.
Ans: 110

Q: Give growth (SK-MEL-28 melanoma) of the following compound: "CC(=O)n1c2ccccc2c2ccccc21"
Ans: 107

Q: Short answer please: growth, SK-MEL-28 melanoma, entry Cc1cc2c(cc1[N+](=O)[O-])NC(CNC(C)C)CC2 (stereo not given)
Ans: 114

Q: Give SK-MEL-28 melanoma growth for "O=C1/C(=N/O)CCc2ccccc21"
Ans: 121

Q: Enter reported growth observed with SK-MEL-28 melanoma for "CC1=NN(c2ccccc2Cl)C(=O)/C1=C\c1cn(S(=O)(=O)c2ccc(C)cc2)c2ccccc12"
Ans: 125

Q: Give recorded growth with SK-MEL-28 melanoma for the following compound: "CCN1C(=O)c2ccc3c4c(ccc(c24)C1=O)C(=O)N(CCCNCc1ccccc1OC)C3=O"
Ans: 3.31

Value source: PubChem BioAssay (NCI)
